System: Hyperlipemia Model of SD Rat
Assay: Screening in the hyperlipemia model of SD rat (fat emulsion by gavage; serum lipids)
Type: in vivo
Settings: hyperlipemia SD rats, 40 mg/kg, dosed 21 days, X ± SD
Examples of compounds with documented CHO1 Concentration (serum cholesterol) follow.
A number alone suffices; assume mmol/L.

> print(dat)
                                   compound  quantitative.result
1  CC(C)(Oc1ccc(Cl)cc1)C(=O)NCC(=O)c1ccc(O)cc1                13.64
2  CC(C)(Oc1ccc(C(=O)c2ccc(Cl)cc2)cc1)C(=O)NCC(=O)c1ccc(O)cc1                12.63
3  CC(Oc1ccc(Cl)cc1)(C(=O)NCC(=O)c1ccc(O)cc1)C1CC1 (stereo not shown)                19.88
4  CC(C)(Oc1ccc(CCNC(=O)c2ccc(Cl)cc2)cc1)C(=O)NCC(=O)c1ccc(OC(=O)C(C)(C)Oc2ccc(CCNC(=O)c3ccc(Cl)cc3)cc2)cc1                17.29
5  CCC(CCCOc1cc(C)ccc1C)C(=O)N(C)CC(=O)c1cc(C)cc(O)c1 (stereo not shown)                 9.48

Data request: Return CHO1 Concentration (serum cholesterol) measured with Hyperlipemia Model of SD Rat given this compound: CC(C)(Oc1ccc(C(=O)c2ccc(Cl)cc2)cc1)C(=O)NCC(=O)c1ccc(OC(=O)C(C)(C)Oc2ccc(C(=O)c3ccc(Cl)cc3)cc2)cc1
Data returned: 10.02

Data request: Return CHO1 Concentration (serum cholesterol) measured with Hyperlipemia Model of SD Rat given this compound: Cc1ccc(C)c(OCCCC(C)(C)C(=O)NCC(=O)c2cc(O)cc(O)c2)c1
Data returned: 11.12
